Recorded measurements of T/C, one per entry
System: L1210 leukemia ip in BDF1 mice, survival T/C
METHOD DESCRIPTION: NCI In Vivo Anticancer Drug Screen. Data for tumor model L1210 Leukemia (intraperitoneal) in B6D2F1 (BDF1) mice
EXPERIMENTAL PARAMETERS: endpoint: mean survival time; dose: 200.0 mg/kg/injection; schedule: Q04DX003 (ip); vehicle: saline; higher = longer survival
Toxic doses and inconclusive results are not listed.

MOLECULE | RESULT TYPE | OBSERVED MEASUREMENT
CNc1ccc(C(=O)NC(CCC(=O)O)C(=O)O)cc1[N+](=O)[O-] (configuration not stated) | T/C | 94 % of control

## Input Find the measured T/C of O=C(O)CCCl with L1210 leukemia ip in BDF1 mice, survival T/C as test system.
## Output 98 % of control

## Input Find the measured T/C of CC(C=C1CCCCC1)C(=O)O (configuration not stated) with L1210 leukemia ip in BDF1 mice, survival T/C as test system.
## Output 102 % of control

## Input Find the measured T/C of C=CCN1CCC(C(=O)OC)(c2ccccc2)CC1 with L1210 leukemia ip in BDF1 mice, survival T/C as test system.
## Output 103 % of control
